Target protein (sequence): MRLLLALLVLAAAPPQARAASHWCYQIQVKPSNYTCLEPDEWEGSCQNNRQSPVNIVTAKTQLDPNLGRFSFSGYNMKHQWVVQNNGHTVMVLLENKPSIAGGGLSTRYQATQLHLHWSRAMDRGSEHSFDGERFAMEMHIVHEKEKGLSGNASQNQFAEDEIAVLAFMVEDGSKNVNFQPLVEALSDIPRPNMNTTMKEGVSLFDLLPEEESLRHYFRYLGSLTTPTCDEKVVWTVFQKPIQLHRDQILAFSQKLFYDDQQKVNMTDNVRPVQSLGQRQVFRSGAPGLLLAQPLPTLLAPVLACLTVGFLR
Measure: pKi
// field semantics: pKi = negative decimal log of concentration (mol/L)

query: Output pKi of NS(=O)(=O)c1nc2ccc(OC(=O)CN(CCN(CC(=O)O)CC(=O)O)CC(=O)O)cc2s1
result: 8.00

query: Determine its reported pKi: NS(=O)(=O)c1nnc(NC(=O)CCNC(=O)CN(CCOCCOCCN(CC(=O)O)CC(=O)NCCC(=O)Nc2nnc(S(N)(=O)=O)s2)CC(=O)O)s1
result: 8.22

query: Return the recorded pKi value; entry: NS(=O)(=O)c1ccc(NC(=O)CNCC(=O)O)c(F)c1
result: 6.84

query: // Input: NS(=O)(=O)c1ccc(CCNC(=O)CN(CCN(CCN(CC(=O)O)CC(=O)NCCc2ccc(S(N)(=O)=O)cc2)CC(=O)O)CC(=O)O)cc1 . Output its pKi only.
result: 7.60

query: Supply reported pKi belonging to this molecule: NS(=O)(=O)c1ccc(NC(=O)CN(CCN(CC(=O)O)CC(=O)O)CC(=O)O)c(Cl)c1
result: 7.16

query: Give the measured pKi for NS(=O)(=O)c1nnc(NC(=O)CCNC(=O)CN(CCOCCOCCN(CC(=O)O)CC(=O)O)CC(=O)O)s1
result: 7.89

query: Consider the molecule NS(=O)(=O)c1cc(S(N)(=O)=O)c(NC(=O)CN(CC(=O)O)CC(=O)O)c(Cl)c1Cl . State its measured pKi.
result: 7.00

query: Using known records, supply pKi for NS(=O)(=O)c1cccc(NC(=O)CNCCNCC(=O)O)c1
result: 6.00

query: # return recorded pKi for entry NS(=O)(=O)c1ccc(NC(=O)CN(CC(=O)O)CC(=O)O)c(F)c1
result: 6.87

query: Find the measured pKi of NS(=O)(=O)c1nc2ccc(NC(=O)CNCCNCC(=O)O)cc2s1 and report it.
result: 7.92

query: Please give measured pKi of the following entry: NS(=O)(=O)c1ccccc1NC(=O)CNCC(=O)O
result: 5.91

query: Please give the documented pKi of NS(=O)(=O)c1nc2ccc(OCCOC(=O)CN(CC(=O)O)CC(=O)O)cc2s1
result: 8.00

query: Identify pKi associated with the molecule NS(=O)(=O)c1ccc(NC(=O)CN(CCN(CCN(CC(=O)O)CC(=O)Nc2ccc(S(N)(=O)=O)cc2)CC(=O)O)CC(=O)O)cc1
result: 7.00

query: Look up and report measured pKi for this entry: NS(=O)(=O)c1ccc(CCNC(=O)CN(CCN(CCN(CC(=O)O)CC(=O)O)CC(=O)O)CC(=O)O)cc1
result: 7.44

query: Provide pKi value for the following molecule: NS(=O)(=O)c1nnc(NC(=O)CCNC(=O)CNCCNCC(=O)O)s1
result: 7.41

query: Quick one: give measured pKi for NS(=O)(=O)c1ccc(COC(=O)CN(CCOCCOCCN(CC(=O)O)CC(=O)OCc2ccc(S(N)(=O)=O)cc2)CC(=O)O)cc1
result: 6.82

query: Identify the reported pKi for the following entry. NS(=O)(=O)c1cc(S(N)(=O)=O)c(NC(=O)CN(CCN(CC(=O)O)CC(=O)Nc2cc(Cl)c(S(N)(=O)=O)cc2S(N)(=O)=O)CC(=O)O)cc1Cl
result: 7.16
